Cited source: patent US20230219911A1

target: sEH enzyme (human recombinant) (Homo sapiens, UniProt P34913); construct: purchased Cayman Chemical; experiment: in vitro sEH enzyme activity by fluorescence analysis, single concentration inhibition; assay type: biochemical; details: compound 0.1 μM; human recombinant sEH; PHOME substrate; 37° C. 15 min; read-out: sEH % inhibition, @ 0.1 μM
inhibition at 0.1 µM vs 60%: at or above is yes (1), below is no (0).

compound	assigned-label
CCNc1nc2ccc(N(CCN3CCOCC3)C(=O)Nc3ccc(F)cc3)nc2s1 [Example 39]	no (0)
Nc1nc2ccc(N(CCCN3CCOCC3)C(=O)Nc3ccc(Cl)cc3)cc2s1 [Example 26]	no (0)
Nc1nc2ccc(NC(=O)NC3CCCCC3)cc2s1 [Example 6]	no (0)
Nc1nc2ccc(N(CCN3CCCC3)C(=O)Nc3ccc(Cl)cc3)cc2s1 [Example 24]	no (0)

inhibition at 0.1 µM >= 60% for CCOC(=O)CNc1nc2ccc(N(CCN3CCOCC3)C(=O)Nc3ccc(Cl)cc3)cc2s1 [Example 29] ? yes (1)

inhibition at 0.1 µM >= 60% for CCN(CC)CCN(C(=O)Nc1ccc(Cl)cc1)c1ccc2nc(N)sc2c1 [Example 21] ? yes (1)

inhibition at 0.1 µM >= 60% for CC(=O)c1ccc(NC(=O)N(CCN2CCOCC2)c2ccc3nc(N)sc3c2)cc1 [Example 9] ? no (0)

inhibition at 0.1 µM >= 60% for Nc1nc2ccc(N(CCN3CCOCC3)C(=O)Nc3ccc(F)cc3)nc2s1 [Example 38] ? no (0)

inhibition at 0.1 µM >= 60% for CCOC(=O)Nc1nc2ccc(N(CCN3CCOCC3)C(=O)Nc3ccc(Cl)cc3)cc2s1 [Example 28] ? yes (1)

inhibition at 0.1 µM >= 60% for Nc1nc2ccc(N(CCN3CCOCC3)C(=O)Nc3ccc(C(F)(F)F)cc3)cc2s1 [Example 13] ? yes (1)

inhibition at 0.1 µM >= 60% for Nc1nc2ccc(NC(=O)NC34C[C@H]5C[C@@H](C3)C[C@@H](C4)C5)cc2s1 [Example 4] ? yes (1)

inhibition at 0.1 µM >= 60% for CC(=O)Nc1ccc(NC(=O)N(CCN2CCOCC2)c2ccc3nc(N)sc3c2)cc1 [Example 10] ? no (0)

inhibition at 0.1 µM >= 60% for Nc1nc2ccc(N(CCN3CCOCC3)C(=O)Nc3ccc(F)c(Br)c3)cc2s1 [Example 16] ? yes (1)

inhibition at 0.1 µM >= 60% for CC(=O)Nc1nc2cnc(N(CCN3CCOCC3)C(=O)Nc3cccnc3)nc2s1 [Example 45] ? no (0)

---

molecular target: sEH enzyme (human recombinant) (Homo sapiens, UniProt P34913); construct: purchased Cayman Chemical; assay: in vitro sEH enzyme activity by fluorescence analysis, single concentration inhibition; type: biochemical; details: compound 0.1 μM; human recombinant sEH; PHOME substrate; 37° C. 15 min; read-out: sEH % inhibition, @ 0.1 μM
Classification scheme (inhibition at 0.1 µM): group 1: < 30%; group 2: ≥ 30% and < 70%; group 3: ≥ 70%

compound	assigned-label
Nc1nc2ccc(NC(=O)Nc3ccccc3)cc2s1	group 2

Pick a category. Item: NC(=O)Nc1ccc2nc(N)sc2c1 [Example 2, 1-(2-aminobenzo[d]thiazol-6-yl)urea] group 1

Pick a category. Item: CC(C)Oc1ccc(NC(=O)N(CCN2CCOCC2)c2ccc3nc(N)sc3c2)cc1 group 3

Pick a category. Item: O=C(Cc1ccccc1)Nc1nc2ccc(N(CCN3CCOCC3)C(=O)Nc3ccc(C(F)(F)F)cc3)cc2s1 group 2

Pick a category. Item: CC(=O)Nc1nc2ccc(N(CCN3CCOCC3)C(=O)Nc3ccc(C)cc3)cc2o1 group 2

Pick a category. Item: Cc1ccc(NC(=O)N(CCN2CCOCC2)c2ccc3nc(N)oc3c2)cc1 group 1

Pick a category. Item: Nc1nc2cnc(N(CCN3CCOCC3)C(=O)Nc3ccc(OC(F)(F)F)cc3)cc2s1 group 2

Pick a category. Item: Nc1nc2ccc(N(CCN3CCOCC3)C(=O)Nc3cccc4ccccc34)cc2s1 group 2

Pick a category. Item: O=C(CCc1ccccc1)Nc1nc2ccc(N(CCN3CCOCC3)C(=O)Nc3ccc(Cl)cc3)cc2s1 group 1

Pick a category. Item: Nc1nc2ccc(N(CCN3CCOCC3)C(=O)Nc3ccc([N+](=O)[O-])cc3)cc2s1 group 1

Pick a category. Item: O=C(Cc1ccccc1)Nc1nc2ccc(N(CCN3CCOCC3)C(=O)Nc3ccc(Cl)cc3)cc2s1 group 3

Pick a category. Item: Nc1nc2ccc(N(CCN3CCOCC3)C(=O)Nc3ccccn3)cc2s1 group 1

Pick a category. Item: CC1CCN(CCN(C(=O)Nc2ccc(Cl)cc2)c2ccc3nc(N)sc3c2)CC1 group 2

Pick a category. Item: CCOC(=O)CNc1nc2cnc(N(CCN3CCOCC3)C(=O)Nc3ccc(OC(F)(F)F)cc3)cc2s1 group 3

Pick a category. Item: CC(C)c1ccc(NC(=O)N(CCN2CCOCC2)c2ccc3nc(N)sc3c2)cc1 group 3

Pick a category. Item: O=C(NCc1ccccc1)Nc1nc2ncc(N(CCN3CCOCC3)C(=O)Nc3ccc(Br)c(F)c3)cc2s1 group 2

---

Target: sEH enzyme (human recombinant) (Homo sapiens, UniProt P34913)
Construct: purchased Cayman Chemical
Sequence (P34913 1-555): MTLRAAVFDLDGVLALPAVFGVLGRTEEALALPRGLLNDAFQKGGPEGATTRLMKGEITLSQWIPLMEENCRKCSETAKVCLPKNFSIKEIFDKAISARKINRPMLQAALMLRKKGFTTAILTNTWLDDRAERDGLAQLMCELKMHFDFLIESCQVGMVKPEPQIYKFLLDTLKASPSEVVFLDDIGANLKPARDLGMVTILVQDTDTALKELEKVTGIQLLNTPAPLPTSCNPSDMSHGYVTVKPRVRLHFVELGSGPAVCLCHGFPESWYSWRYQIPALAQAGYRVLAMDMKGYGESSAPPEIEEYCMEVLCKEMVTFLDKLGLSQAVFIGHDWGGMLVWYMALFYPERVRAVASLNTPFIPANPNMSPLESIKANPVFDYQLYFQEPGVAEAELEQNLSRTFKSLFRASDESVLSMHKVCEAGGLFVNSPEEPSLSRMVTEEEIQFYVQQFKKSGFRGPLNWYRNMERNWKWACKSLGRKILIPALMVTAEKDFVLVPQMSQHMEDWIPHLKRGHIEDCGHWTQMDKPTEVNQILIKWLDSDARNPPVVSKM
Assay: in vitro IC50 of soluble epoxide hydrolase (sEH) by fluorescence analysis
Type: biochemical
pIC50: −log10 of the molar value.
pIC50 vs 8: at or above is MET, below is NOT MET.

Worked set:
compound	assigned-label
O=C(Nc1ccc(Cl)cc1)Nc1nc2ccc(N(CCN3CCOCC3)C(=O)Nc3ccc(Cl)cc3)cc2s1 [Example 40]	MET
Nc1nc2ccc(NC(=O)Nc3ccc(Cl)cc3)cc2s1 [Example 1]	MET
Nc1nc2ccc(NC(=O)NC34C[C@H]5C[C@@H](C3)C[C@@H](C4)C5)cc2s1 [Example 4]	NOT MET

# ---- query compound ----
pIC50 >= 8 for O=C(Cc1ccccc1)Nc1nc2ccc(N(CCN3CCOCC3)C(=O)Nc3ccc(Cl)cc3)cc2s1 [Example 27] ? MET

---

molecular target: sEH enzyme (human recombinant) (Homo sapiens, UniProt P34913); construct: purchased Cayman Chemical; test: in vitro sEH enzyme activity by fluorescence analysis, single concentration inhibition; format: biochemical; conditions: compound 0.1 μM; human recombinant sEH; PHOME substrate; 37° C. 15 min; read-out: sEH % inhibition, @ 0.1 μM
endpoint-label: inhibition at 0.1 µM (%)
Numbers only, in %.

Consider the following illustrative entries.
Nc1nc2ccc(NC(=O)NCc3ccc(Cl)cc3)cc2s1 47
CN1CCN(CCN(C(=O)Nc2ccc(C(F)(F)F)cc2)c2ccc3nc(N)sc3c2)CC1 43.7
O=C(Nc1ccc(Cl)cc1)Nc1nc2ccc(N(CCN3CCOCC3)C(=O)Nc3ccc(Cl)cc3)cc2s1 43
O=C(CCc1ccccc1)Nc1nc2cnc(N(CCN3CCOCC3)C(=O)Nc3cccnc3)nc2s1 67.9
Cc1ccc(NC(=O)N(CCN2CCOCC2)c2ccc3nc(NC(=O)Cc4ccccc4)oc3c2)cc1 66.8
Nc1nc2cnc(N(CCN3CCOCC3)C(=O)Nc3cccnc3)nc2s1 55.9
CC(=O)Nc1nc2ccc(N(CCN3CCOCC3)C(=O)Nc3ccc(Cl)cc3)cc2s1 27.5

Moving on to another compound below.
Item O=C(Nc1nc2cnc(N(CCN3CCOCC3)C(=O)Nc3ccc(OC(F)(F)F)cc3)cc2s1)C1CC1 has what recorded inhibition at 0.1 µM? 52.1

---

Target: sEH enzyme (human recombinant) (Homo sapiens)
Construct: purchased Cayman Chemical
Sequence (P34913 1-555): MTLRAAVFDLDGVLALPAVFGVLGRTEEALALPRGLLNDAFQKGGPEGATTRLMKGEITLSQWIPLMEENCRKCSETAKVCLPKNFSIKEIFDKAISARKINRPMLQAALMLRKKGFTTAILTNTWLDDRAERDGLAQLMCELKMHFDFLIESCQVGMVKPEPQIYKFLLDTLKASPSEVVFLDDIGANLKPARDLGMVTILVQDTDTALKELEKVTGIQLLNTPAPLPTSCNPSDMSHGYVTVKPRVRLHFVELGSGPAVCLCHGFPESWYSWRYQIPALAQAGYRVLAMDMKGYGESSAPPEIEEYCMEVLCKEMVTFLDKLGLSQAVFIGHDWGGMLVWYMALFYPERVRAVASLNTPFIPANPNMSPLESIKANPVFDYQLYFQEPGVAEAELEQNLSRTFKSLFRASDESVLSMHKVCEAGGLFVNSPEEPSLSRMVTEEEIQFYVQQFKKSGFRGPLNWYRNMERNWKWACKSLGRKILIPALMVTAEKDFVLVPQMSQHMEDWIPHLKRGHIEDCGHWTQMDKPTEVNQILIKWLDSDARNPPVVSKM
Assay: in vitro IC50 of soluble epoxide hydrolase (sEH) by fluorescence analysis
Type: biochemical
Settings: human recombinant sEH; PHOME substrate; read-out: IC50
endpoint-label: log10(IC50) (log10 of the value in nM)
Form field - Quantity: IC50; Unit: nM; Scale: log10

Consider the following illustrative entries.
compound	log10(IC50)
Nc1nc2ccc(N(CCN3CCOCC3)C(=O)Nc3ccc(Cl)cc3)cc2s1 [Example 12]	0.61
CN(C)CCN(C(=O)Nc1ccc(Cl)cc1)c1ccc2nc(N)sc2c1 [Example 25]	1.43
O=C(Nc1ccc(Cl)cc1)Nc1ccc2nc(NC(=O)Nc3ccc(Cl)cc3)sc2c1 [Example 7]	0.96
CC(=O)Nc1nc2ccc(N(CCN3CCOCC3)C(=O)Nc3ccc(Cl)cc3)cc2s1 [Example 30]	0.28
Nc1nc2ccc(N(CCN3CCOCC3)C(=O)Nc3ccc(C(F)(F)F)cc3)cc2s1 [Example 13]	0.45
CCOC(=O)CNc1nc2ccc(N(CCN3CCOCC3)C(=O)Nc3ccc(Cl)cc3)cc2s1 [Example 29]	0.41

Moving on to another compound below.
Item Nc1nc2ccc(N(CCN3CCOCC3)C(=O)Nc3ccc(F)c(Br)c3)cc2s1 [Example 16] has what recorded log10(IC50)? -0.60
